Where do the numbers come from? From PubChem BioAssay (NCI).

Please go through the items and note down their growth.
Tested on: K-562 leukemia
test-summary: NCI-60 one-dose screen, 48 h (100 = growth as untreated, 0 = no growth, -100 = all killed)
test-conditions: 10 µM unless noted
The panel holds about 83,000 compounds, 20% with a hit somewhere; the sample as a whole holds those more often.
One number for each entry, in %.

molecule | readout-units | observed-value
Cc1ccc(Cc2c(C=O)nc(N)[nH]c2=O)c2ccccc12 | % | 107
COc1ccc(-c2c(N)n[nH]c2-c2cc(OC)c(OC)c(OC)c2)cc1 | % | 19.3
COc1ccc(-c2nc3sc(-c4cc(OC)c(OC)c(OC)c4)nn3c2/C=C2/C(=O)Nc3ccc(F)cc32)cc1 | % | 19.9
COc1ccc2cc(-c3ccc(-c4ccc(C(=N)N)cc4)s3)ccc2c1 | % | 40
O=[N+]([O-])c1ccc(/C=C/C2(CCl)OCCO2)cc1 | % | 65.7

Hey, can you go through the list below and give me growth for every item?
1. Nc1cccc(-c2nc3sccn3c2-c2ccnc(NCCCNS(=O)(=O)c3cccc4ccccc34)n2)c1
2. O=S(=O)(NCCNc1nccc(-c2c(-c3ccc(O)cc3)nc3sccn23)n1)c1cccc2ccccc12
3. COc1ccc2[nH]c(=O)c(/C=N/Nc3nc(-c4ccccc4)cs3)c(O)c2c1
4. CC(=O)OC[C@]12CC[C@H]3[C@@H](C[C@H]4O[C@]45CC=CC(=O)[C@]35C)[C@]1(O)CC[C@@]2(O)[C@@](C)(O)C1CC(C)=C(C)C(=O)O1 (some centres undefined)

Response:
22.6
91.4
71.3
5.58
